conditions: 333.15 K; 101.33 kPa; Liquid; Cone and plate viscometry
Catalogue of compounds with associated viscosity
Lab book: enter the figure in mPa·s, no units written.

{"compound": "CCC=Cn1cc[n+](C)c1C.O=[N+]([O-])c1cn[n-]c1 [1-but-1-enyl-2,3-dimethylimidazolium 4-nitropyrazolide]", "reported result": 62}

Name the recorded viscosity for CCCCCCCCC[P+](CC)(CC)CC.O=[N+]([O-])c1cn[n-]c1 [triethylnonylphosphonium 4-nitropyrazolide] . 52

Could you do the same for CCCCCCn1cc[n+](C)c1C.O=[N+]([O-])c1cn[n-]c1 [1-hexyl-2,3-dimethylimidazolium 4-nitropyrazolide] , please? 87

# repeat for CCCCCCCC[P+](CC)(CC)CC.Cc1ncc([N+](=O)[O-])[n-]1 [triethyloctylphosphonium 2-methyl-5-nitroimidazolide] 80

Try CCCCCCCCCCCCCC[P+](CCCCCC)(CCCCCC)CCCCCC.Clc1nc[n-]c1Cl [trihexyl(tetradecyl)phosphonium 4,5-dichloroimidazolide] next. 116

Quick one: `CCCCCCCCCCCCCC[P+](CCCCCC)(CCCCCC)CCCCCC.O=S(=O)([N-]S(=O)(=O)C(F)(F)F)C(F)(F)F` 63

====

settings: 343.15 K; 101.33 kPa; Liquid; Vibrating tube method
Hi! Just check whether mass density is below 1000 kg/m3. Below gives 1.0, equal or above gives 0.0.

{"compound": "CC[P+](CC)(CC)COCCOC.O=S(=O)([N-]S(=O)(=O)C(F)(F)F)C(F)(F)F", "assigned label": 0.0}
{"compound": "CCCCCCCCCCCCCC[P+](CCCCCC)(CCCCCC)CCCCCC.N#Cc1nc[n-]c1C#N [trihexyl(tetradecyl)phosphonium 4,5-dicyanoimidazolide]", "assigned label": 1.0}
{"compound": "CCCCCCSC(N(C)C)=[N+](C)C.O=S(=O)([N-]S(=O)(=O)C(F)(F)F)C(F)(F)F", "assigned label": 0.0}
{"compound": "CCCCCCCCCCCCCC[P+](CCCCCC)(CCCCCC)CCCCCC.O=S(=O)([N-]S(=O)(=O)C(F)(F)F)C(F)(F)F", "assigned label": 0.0}
{"compound": "CCCCCC[n+]1ccn(C)c1.O=S(=O)([N-]S(=O)(=O)C(F)(F)F)C(F)(F)F", "assigned label": 0.0}

API: query returns whether the compound falls strictly under 1000 kg/m3 in mass density. Query: CCCCCCCCCCCCCC[P+](CCCCCC)(CCCCCC)CCCCCC.O=[N+]([O-])c1cn[n-]c1 [trihexyl(tetradecyl)phosphonium 4-nitropyrazolide] 1.0

====

settings: 318.15 K; 101.33 kPa; Liquid; Vibrating tube method
endpoint: mass density (kg/m3)
Respond with the bare value in kg/m3.

Solved entries:
{"compound": "CC[P+](CC)(CC)COCCOC.O=S(=O)([N-]S(=O)(=O)C(F)(F)F)C(F)(F)F", "reported result": 1342.3}
{"compound": "CCCCCCn1cc[n+](C)c1.N#Cc1ccc[n-]1 [1-hexyl-3-methylimidazolium 2-cyanopyrrolide]", "reported result": 1009.9}
{"compound": "CCCC[P+](CC)(CC)CC.O=[N+]([O-])c1cn[n-]c1 [butyltriethylphosphonium 4-nitropyrazolide]", "reported result": 1066.3}

// returns reported mass density for input `CCCCCCCCSC(N(C)C)=[N+](C)C.O=S(=O)([N-]S(=O)(=O)C(F)(F)F)C(F)(F)F` 1279.7

# repeat for CCCC[n+]1cccn1C.O=S(=O)([N-]S(=O)(=O)C(F)(F)F)C(F)(F)F [1-butyl-2-methylpyrazolium bis(trifluoromethylsulfonyl)imide] 1432.4

Record: CCCCCCCC[P+](CC)(CC)CC.Cc1ncc([N+](=O)[O-])[n-]1 [triethyloctylphosphonium 2-methyl-5-nitroimidazolide] 1016.9

Request: CCCCCCCCCCCCCC[P+](CCCCCC)(CCCCCC)CCCCCC.O=[N+]([O-])c1cn[n-]c1 [trihexyl(tetradecyl)phosphonium 4-nitropyrazolide] 927.4

And then CCCCCCCCCCCCCC[P+](CCCCCC)(CCCCCC)CCCCCC.N#Cc1nc[n-]c1C#N [trihexyl(tetradecyl)phosphonium 4,5-dicyanoimidazolide] , what is it? 908.1

Also need CCCCCCCCC[P+](CC)(CC)CC.O=[N+]([O-])c1cn[n-]c1 [triethylnonylphosphonium 4-nitropyrazolide] , thanks. 1009.9

What do you have for CCCCCCn1cc[n+](C)c1C.O=[N+]([O-])c1cn[n-]c1 [1-hexyl-2,3-dimethylimidazolium 4-nitropyrazolide] ? 1106

Request: CCCCCCCC[P+](CC)(CC)CC.O=[N+]([O-])c1c[n-]cn1 [triethyloctylphosphonium 4-nitroimidazolide] 1017.2
